Below, each entry is listed with its recorded EC90.
- System: 229E
- assayMethodText: 229E MRC5 CPE assay (cytopathic experiment)
- Type: cell-based, coronavirus 229E (HCoV-229E)
- reportedConditions: Human coronavirus 229E, MRC5, 72 h, read-out: 229E MRC5 CPE assay (μM) EC90
- Method: Cells were seeded into microplates at a certain density and cultured overnight in a incubator at 5% CO2, 37° C. The next day, double-diluted compound and virus were added. It was set up a cell control group (cells without treatment with a compound or virus infection), a virus control group (cells infected with virus, no compound treatment) and a culture medium control group (medium only). Cells were cultured in the incubator for 3 days (229E) or 7 days (OC43). […]

compound	EC90
CCCN(CCC)S(=O)(=O)c1ccc(C(=O)OCOP(=O)(OCOC(=O)c2ccc(S(=O)(=O)N(CCC)CCC)cc2)OC[C@H]2O[C@@](C#N)(c3ccc4c(N)ncnn34)[C@H](O)[C@@H]2O)cc1 [Compound 164]	> 0.5 µM
CCCN(CCC)S(=O)(=O)c1ccc(C(=O)OCOP(=O)(NC(C)(C)C(=O)OC(C)C)OC[C@H]2O[C@@](C#N)(c3ccc4c(N)ncnn34)[C@H](O)[C@@H]2O)cc1 (some centres unmarked) [Compound 163]	> 0.5 µM
CCC(CC)COC(=O)[C@H](C)NP(=O)(OCOC(=O)C(C)(C)C)OC[C@H]1O[C@@](C#N)(c2ccc3c(N)ncnn23)[C@H](O)[C@@H]1O (some centres unmarked) [Compound 193]	> 0.5 µM
CCCC(CCC)C(=O)OCO[P@](=O)(N[C@@H](C)C(=O)OC(C)C)OC[C@H]1O[C@@](C#N)(c2ccc3c(N)ncnn23)[C@H](O)[C@@H]1O [Compound 074]	< 0.1 µM
CC(C)OC(=O)C(C)(C)N[P@@](=O)(OCOC(=O)C1CCCC1)OC[C@H]1O[C@@](C#N)(c2ccc3c(N)ncnn23)[C@H](O)[C@@H]1O [Compound 267]	> 0.5 µM
N#C[C@@]1(c2ccc3c(N)ncnn23)O[C@H](COP(=O)(OCOC(=O)OC2CCC2)OCOC(=O)OC2CCC2)[C@@H](O)[C@H]1O [Compound 276]	> 0.5 µM
CC(C)OC(=O)CO[P@]1(=O)OC[C@H]2O[C@@](C#N)(c3ccc4c(N)ncnn34)[C@H](O)[C@@H]2O1 [Compound 146]	> 0.5 µM
CCC(CC)COC(=O)[C@H](C)N[P@@](=O)(OCOC(=O)C(C)(C)C)OC[C@H]1O[C@@](C#N)(c2ccc3c(N)ncnn23)[C@H](O)[C@@H]1O [Compound 192]	> 0.5 µM
[2H]c1cc([C@]2(C#N)O[C@@H]3CO[P@](=O)(OCCSC(=O)C(C)(C)C)O[C@H]3[C@H]2O)n2ncnc(N)c12 [Compound 238]	< 0.1 µM
[2H]c1cc([C@]2(C#N)O[C@@H]3CO[P@@](=O)(OCOC(=O)C(CCC)CCC)O[C@H]3[C@H]2O)n2ncnc(N)c12 [Compound 211]	< 0.1 µM
CC(C)(C)C(=O)SCCO[P@@]1(=O)OC[C@H]2O[C@@](C#N)(c3ccc4c(N)ncnn34)[C@H](O)[C@@H]2O1 [Compound 236]	< 0.1 µM

// data source = patent US20240252527A9
